The following compounds each carry a recorded pIC50 for BRD3 (His-Brd3(20-477)) (Homo sapiens (Human), UniProt Q15059).
pIC50: −log10 of the molar value.
measurement_type: pIC50

The cases that follow already have their pIC50 on record.
Data request: Hello, I am looking for reported pIC50 with BRD3 (His-Brd3(20-477)) (Homo sapiens (Human), UniProt Q15059) for Cc1cc(N2C(=O)c3nc(C4CCOCC4)n(C(C)C)c3[C@H]2c2ccc(Cl)cc2)nn2c(C)nnc12 . Could you help?
Data returned: 7.77

Data request: Follow-up entry: Cc1cc(N2C(=O)c3nc(C4CC4)n(C(C)C)c3C2c2ccc(Cl)cc2)cn2c(C)nnc12 (racemic)
Data returned: 7.41

Data request: Entry COc1ccc(-c2nc3c(n2C)C(=O)N(c2cc(C)c(=O)n(C)c2)[C@@H]3c2ccc(Cl)cc2)cn1 please
Data returned: 7.32

(I) Cc1cc(N2C(=O)c3nc(C4=CCOCC4)[nH]c3[C@H]2c2ccc(Cl)cc2)cn(C)c1=O
(II) COc1cc(N2C(=O)c3nc(C4=CCOCC4)n(C(C)C)c3C2c2ccc(Cl)cc2)cc2c1nnn2C (stereo not drawn)
(III) COc1ccc(-c2nc3c(n2C(C)C)C(c2ccc(Cl)cc2)N(c2cc(OC)c4nnn(C)c4c2)C3=O)cn1 (stereo not drawn)
Data request: Rank the 3 compounds: largest pIC50 first, smallest last. # list labels per requested ordering
Data returned: I, II, III

(A) Cc1cc(N2C(=O)c3nc(C4=CCOCC4)n(C4COC4)c3C2c2ccc(Cl)cc2)cc2c1nnn2C (stereo not drawn)
(B) COc1ncc(-c2nc3c(n2C(C)C)C(c2ccc(Cl)cc2)N(c2cc(C)c4nnc(C(F)F)n4c2)C3=O)c(OC)n1 (stereo not drawn)
Data request: So which one has the bigger pIC50 here, A or B ? Reply briefly: the label of your chosen item.
Data returned: B
